PROTOCOL TEXT: NCI Yeast Anticancer Drug Screen. Data for the rad50 strain (AID 155)
CONDITIONS: S. cerevisiae rad50 strain growth inhibition; at 50.0 µM (retest, dose inferred, filed as 5.0)
Compounds without any hit were thinned out: in the full panel of roughly 79,000, 15% have a hit. Activity calls are given as the source filed them. Rule as the data show it: active = growth inhibition above about 70%; inactive = the rest.
Outcomes: active, inactive

COMPOUND | CLASS LABEL
CC(C(=O)O)c1c(-c2ccccc2)ccc2ccccc12 (stereo not given) | inactive
Cc1cc(I)cc(I)c1O | inactive
COc1ccc2c(c1)CC[C@@H]1[C@@H]2CC[C@]2(C)/C(=N/OCCN3CCCCC3)CC[C@@H]12 | active
O=[N+]([O-])OC1CCCC(O[N+](=O)[O-])c2c1n([O-])c1ccccc1[n+]2=O (stereo not given) | active
COc1cccnc1/C=N/NC(N)=S | inactive
CCCCCCCCCCCCCCNCc1ccccc1 | active
O=C1OCc2cccc3cccc1c23 | active
C/C=C/CC(C/C=C/C)C1CC[N-]CC1.C/C=C/CC(C/C=C/C)C1CC[N-]CC1.[Cl][Pt+2]([Cl])([Cl])[Cl] | active
CN(C)c1ccc2c(c1)Cc1cc(NC(=O)/C=C/C(=O)O)ccc1-2 | inactive
COC(=O)c1[nH]cnc1/N=N/N(C)C | active
C/C(=N/Nc1ccc([N+](=O)[O-])cc1[N+](=O)[O-])C1=CCC(C(C)(C)C)CC1 (stereo not given) | inactive
O=C1NN(C2=NNC3(C(=O)N2)c2ccccc2-c2ccccc23)C(c2ccccc2)=N/C1=C/c1ccc(O)cc1 | inactive
N#Cc1c(-c2ccc(Cl)cc2)c(-c2ccc(Cl)cc2)nn(CCOC(=O)CCC(=O)O)c1=O | active
O=S(=O)(O)c1ccc(O)c2cc(Nc3ccccc3)ccc12 | inactive
C/C=C(\C)C(=O)OC1C(C)C2(O)C(C=C(CO)CC3(O)C(=O)C(C)=CC32)C2C(C)(C)C12OC(=O)CCCCCCCCC (stereo not given) | active
Cc1cc(Cl)c(O)c(-c2cc(-c3cccc([N+](=O)[O-])c3)c3c(N)[nH]c(=S)nc3n2)c1 | inactive
CCN(CC)C(=S)N/N=C/c1cc([N+](=O)[O-])ccc1O | inactive
O=C(Cl)c1cc(-c2ccc(Cl)cc2)nc2c(Cl)cccc12 | active
CN(C)c1nc(=Nc2ccc(N=c3nc(N(C)C)ss3)cc2)ss1 | active
C[n+]1c(-c2ccc(/C=C/C=N\NC(=O)c3ccc(C(=O)N/N=C\C=C\c4ccc(-c5cn6ccccc6[n+]5C)cc4)cc3)cc2)cn2ccccc21 | active
